molecular target: T1, human CD71 extracellular domain (human, UniProt P02786 89-760); experiment: primary ELISA, signal ratio to HSA
T1 construct: also called hCD71; human CD71-ECD
T1 sequence (P02786 89-760): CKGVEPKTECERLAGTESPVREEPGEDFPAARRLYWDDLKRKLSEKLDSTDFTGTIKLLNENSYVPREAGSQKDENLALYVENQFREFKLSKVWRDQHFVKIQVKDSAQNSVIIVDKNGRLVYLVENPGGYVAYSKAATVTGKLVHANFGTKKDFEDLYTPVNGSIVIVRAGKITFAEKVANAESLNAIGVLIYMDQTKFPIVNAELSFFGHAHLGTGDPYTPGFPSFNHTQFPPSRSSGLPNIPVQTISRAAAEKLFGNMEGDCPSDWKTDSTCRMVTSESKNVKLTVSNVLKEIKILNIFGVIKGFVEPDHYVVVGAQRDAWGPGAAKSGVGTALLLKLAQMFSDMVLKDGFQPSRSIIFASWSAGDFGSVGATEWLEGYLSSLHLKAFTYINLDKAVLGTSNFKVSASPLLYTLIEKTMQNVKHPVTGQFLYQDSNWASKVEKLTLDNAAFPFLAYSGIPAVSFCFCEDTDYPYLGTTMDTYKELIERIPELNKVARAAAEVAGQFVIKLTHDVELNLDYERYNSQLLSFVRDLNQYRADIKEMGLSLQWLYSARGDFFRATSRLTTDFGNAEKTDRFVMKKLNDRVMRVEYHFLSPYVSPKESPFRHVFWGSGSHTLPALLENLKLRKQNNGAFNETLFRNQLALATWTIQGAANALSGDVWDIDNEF
Assignment: determine reported hCD71:HSA for the given binders.
The reply should be a number, written without any unit.

Bench note: what hCD71:HSA did CD71-binding FN3 domain of SEQ ID NO: 142 (designed binder) MSLPAPKNLVVSRVTEDSARLSWTASDAAFDSFHIWYFEKANEGEAIPLVVPGSERSYDLTGLKPGTEYDVDIGGVKGGAWSIPLGARFTT show? 65

Field request: hCD71:HSA | item: CD71-binding FN3 domain of SEQ ID NO: 181 (designed binder) MSLPAPKNLVVSRVTEDSARLSWTAPDAAFDSFEIGYFENDYFGEAIVLTVPGSERSYDLTGLKPGTEYWVQIGGVKGGNWSAPLSAIFTT 133

Which hCD71:HSA value belongs to CD71-binding FN3 domain of SEQ ID NO: 214 (designed binder) MSLPAPKNLVVSRVTEDSARLSWTAPDAAFDSFEIDYGEYSQAGEAIGLLVPGSERSYDLTGLKPGTEYWVQIGGVKGGNWSAPLSAIFTT ? 36

Which hCD71:HSA is reported for this binder? CD71-binding FN3 domain of SEQ ID NO: 161 (designed binder) MSLPAPKNLVVSRVTEDSARLSWTAPDAAFDSFFIGYLEPQPPGEAIVLTVPGSERSYDLTGLKPGTEYNVTIQGVKGGFPSEPLVAHFTT 13
